B1: EHEE_rd2_1257 (parent)
chain: EEERTFTNEEEARKAKKEAEKRGLRVTVTKDGTTWRVRIG

Variants of: B1
experiment: folding stability dG (cDNA display proteolysis); higher = more stable
protocol-conditions: PBS, room temperature
Recorded measurements of folding stability dG, one per entry
property: folding stability dG (kcal/mol)

INSERT INTO assay_data (sequence_code, measured_number) VALUES
  ('EEEATFTNEEEARKAKKEAEKRGLRVTVTKDGTTWRVRIG', 1.59),
  ('EEERTFTNEEEARKAKKEAEKRGLRMTVTKDGTTWRVRIG', 0.445),
  ('EEERTFCNEEEARKAKKEAEKRGLRVTVTKDGTTWRVRIG', 1.95),
  ('EEERTFTNEEEARKAKKEAEKRGLRVTVTKDGLTWRVRIG', 2.12),
  ('EEERTFTNEEEARKAKKEAEKRGLRVTVTKDGTAWRVRIG', 1.68),
  ('EEERTFTNEEEARKAKKEAEKRGLRVTVTKDGTTWRVRKG', -0.799);

Values were extracted from the MegaScale stability set (Tsuboyama et al. 2023).
